target: Cholinesterase (Equus caballus, UniProt P81908); assay: Inhibition of equine serum BuchE using butyrylthiocholine as substrate by Ellman's method
Sequence (P81908 whole entry): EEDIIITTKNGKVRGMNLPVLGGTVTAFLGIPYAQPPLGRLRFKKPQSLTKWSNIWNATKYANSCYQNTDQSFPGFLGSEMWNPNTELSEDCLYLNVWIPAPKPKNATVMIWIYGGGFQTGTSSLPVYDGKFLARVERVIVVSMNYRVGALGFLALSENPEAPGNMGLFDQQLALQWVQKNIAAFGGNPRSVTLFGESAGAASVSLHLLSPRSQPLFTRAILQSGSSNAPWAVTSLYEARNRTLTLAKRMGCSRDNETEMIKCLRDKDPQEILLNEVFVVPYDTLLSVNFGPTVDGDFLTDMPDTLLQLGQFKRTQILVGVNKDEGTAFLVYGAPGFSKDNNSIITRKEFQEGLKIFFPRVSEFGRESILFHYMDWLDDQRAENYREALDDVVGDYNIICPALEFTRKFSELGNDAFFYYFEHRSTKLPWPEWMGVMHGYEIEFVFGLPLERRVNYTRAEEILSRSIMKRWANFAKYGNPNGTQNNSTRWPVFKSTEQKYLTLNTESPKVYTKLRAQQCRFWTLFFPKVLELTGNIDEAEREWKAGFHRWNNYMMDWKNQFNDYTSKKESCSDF
RECORDED ENDPOINT: IC50 (nM)
Kindly answer with a numeric value in nM, unit omitted.

The cases that follow already have their IC50 on record.
Reported IC50 ( CCn1ncc2c(NC3CCCCC3)c(C(=O)NCCCCNc3c4c(nc5ccccc35)CCCC4)cnc21 ) = 889

In plain terms, CCn1ncc2c(NC3CCCCC3)c(C(=O)NCCCCCCCNc3c4c(nc5ccc(Cl)cc35)CCCC4)cnc21 has a documented IC50 of 245

The reported value for CCn1ncc2c(NC3CCCCC3)c(C(=O)NCCCCCNc3c4c(nc5ccccc35)CCCC4)cnc21 in terms of IC50 is 264

Let us examine a further case.
The recorded IC50 for entry CCn1ncc2c(NC3CCCCC3)c(C(=O)NCCCCCCCNc3c4c(nc5ccccc35)CCCC4)cnc21 equals 324
